Hello, the source for this data is PubChem BioAssay, in case you need it.

Tested on: Wnt5a (protein binding on small-molecule microarray)
Procedure text: Wnt5a binders on small-molecule microarray, primary screen, biophysical, 635/667 nm fluorescence (AID 1142);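 note: fluorescence read at 667 nm with signal to noise per printed feature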
Stated conditions: 635 nm fluorescence, higher = more signal
Property label: composite z-score
Write the value as a bare number.

See these solved cases before continuing.
Param item = C=C(COC)/C(=C/C[C@@H](OC(C)=O)c1ccc(OCCO)cc1)c1cc(C(=O)OC)ccc1OC ; retrieve measured composite z-score.
0.969

Param item = OC([C@@H]1CC(c2ccccc2)=NO1)[C@H]1CC(c2ccccc2)=NO1 (some centres undefined) ; retrieve measured composite z-score.
0.0286

---
Param item = CC(C)N1C(=O)[C@@]2(Cc3ccccc31)c1ccccc1C(=O)N(C1CCCCC1)[C@H]2c1ccc(CO)cc1 ; retrieve measured composite z-score.
0.0034

Param item = [N-]=[N+]=NCc1ccccc1[C@H]1OC(c2ccc(OCCCO)cc2)=N[C@@]1(Cc1ccccc1)C(=O)NCc1ccccc1 ; retrieve measured composite z-score.
0.348

Param item = C[C@@H]1ON(c2cccc(C(=O)OC(C)(C)C)c2)[C@H](c2ccc(Br)cc2)[C@H]1C(=O)N1C(=O)OC[C@H]1Cc1ccccc1 ; retrieve measured composite z-score.
0.458

====

Target or system: Dihydroorotate dehydrogenase (quinone), mitochondrial (Plasmodium falciparum (isolate 3D7))
Procedure text: PfDHODH enzyme inhibitors, primary screen, biochemical, C-terminal His tag, absorbance 600 nm (AID 1175);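 note: recombinant parasite enzyme with a five histidine tag at its C terminus; test concentration not given here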
Stated conditions: DCIP absorbance 600 nm, higher = more signal, called active from +8 up or from −8 down
The source made the active and inactive calls.
Quick list: composite z-score per entry.

Param item = COc1ccc(CCNC(=O)[C@@]2(C)c3ccccc3C(=O)N(Cc3cc(F)cc(C(F)(F)F)c3)[C@H]2c2ccc(CO)cc2)cc1 ; retrieve measured composite z-score.
0.917 (inactive)

Param item = COCCOC(=O)N1C(=O)[C@@]2(c3cc(C#CC4(O)CCCCCC4)ccc31)[C@H](c1ccc(O)cc1)N1[C@H](c3ccccc3)[C@H](c3ccccc3)OC(=O)[C@H]1[C@@H]2C(=O)Nc1nc2ccccc2s1 ; retrieve measured composite z-score.
0.811 (inactive)

Param item = COC(=O)[C@@]1(Cc2ccc(F)cc2)[C@@H]2[C@@H](CC(=O)[C@H]2CC(=O)C(=O)N(C)C)CN1C(=O)c1ccccc1 ; retrieve measured composite z-score.
-0.363 (inactive)

Param item = C=C(/C(=C/C[C@@H](OC(C)=O)c1ccc(OCCO)cc1)c1cnc2ccccc2c1)C(C)C ; retrieve measured composite z-score.
-7.29 (inactive)

Param item = C=CC[C@]1(C(=O)NCCCOC)N=C(c2ccc(OCCCO)cc2)O[C@H]1c1ccccc1N=[N+]=[N-] ; retrieve measured composite z-score.
1.1 (inactive)

Pending compound:
Param item = COCCOC(=O)N1C(=O)[C@@]2(c3cc(C#CC4=CCCCC4)ccc31)[C@H](C(=O)Nc1nc3ccccc3s1)[C@H]1C(=O)O[C@H](c3ccccc3)[C@H](c3ccccc3)N1[C@@H]2c1ccc(OCCO)cc1 ; retrieve measured composite z-score.
0.0498 (inactive)

====

Quick list: z-score per entry.
Procedure text: mitochondrial membrane potential change in A549 cells, profiling panel, cell-based, JC-1 fluorescence, basal, 24 h, 100 nL (AID 1138);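 note: A549 lung adenocarcinoma cells under basal conditions with no added stimulus; test concentration not given here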
Stated conditions: higher = more signal

See these solved cases before continuing.
Param item = COCC(=C=CC[C@@H](O)c1ccccc1OCCO)C[C@@H](O)c1cc(Cl)cc(Cl)c1O ; retrieve measured z-score.
-0.41

Param item = CC(C)C[C@H]1NC(=O)[C@@]23C(=O)N[C@@H](Cc4ccccc4)C2[C@H](C)[C@@]2(C)O[C@H]2C3/C=C/C/C=C\CNC(=O)[C@H](Cc2ccccc2)NC1=O (stereo partly specified) ; retrieve measured z-score.
0.156

---
Param item = Cc1ccc(S[C@]2(C(=O)NCCN3CCOCC3)CC(=O)N(Cc3ccccc3)[C@@H]2c2ccc(CO)cc2I)cc1 ; retrieve measured z-score.
0.0777

Param item = COc1ccc([Si](C)(C)[C@@H]2[C@@H](CC(=O)N3Cc4ccccc4C[C@H]3CO)O[C@]3(C(=O)N(C)c4c(Br)cc(C)cc43)[C@H]2C)cc1 ; retrieve measured z-score.
0.595

Param item = COc1cc2c(cc1O)C=[N+](Cc1cccc(OC(F)(F)F)c1)CC2 ; retrieve measured z-score.
2

Param item = COCCCN1C(=O)[C@@]2(c3ccc([N+](=O)[O-])cc3)CC(=O)N(C3CCCCC3)[C@@H]2c2ccc(CO)cc21 ; retrieve measured z-score.
-0.39

Param item = C=CC[C@]12N=C(c3ccc(OCCCO)cc3)O[C@H]1c1ccccc1N(Cc1ccccc1)C2=O ; retrieve measured z-score.
-1.21

Param item = COCCOC(=O)N1C(=O)[C@@]2(c3cc(C#CCCO)ccc31)[C@H](c1ccc(OCCO)cc1)N1[C@H](c3ccccc3)[C@H](c3ccccc3)OC(=O)[C@H]1[C@@H]2C(=O)N1CCN(c2ncccn2)CC1 ; retrieve measured z-score.
-1.04

Param item = C=CCOC(=O)[C@H]1[C@@H]2C(=O)O[C@@H](c3ccccc3)[C@@H](c3ccccc3)N2[C@@H](c2ccc(OCCOC(=O)[C@@H]3C[C@@H]4C(=O)N[C@@H](CCCCN(C)C)C(=O)N4[C@@H]3c3ccc(O)cc3)cc2)[C@]12C(=O)Nc1ccc(I)cc12 ; retrieve measured z-score.
-1.63

Param item = C=CCOC(=O)[C@@H]1[C@H]2C(=O)O[C@H](c3ccccc3)[C@H](c3ccccc3)N2[C@H](c2ccc(OCCOC(=O)[C@@H]3C[C@@H]4C(=O)N[C@@H](Cc5ccccc5)C(=O)N4[C@@H]3c3ccc(O)cc3)cc2)[C@@]12C(=O)Nc1ccc(I)cc12 ; retrieve measured z-score.
-1.53

Param item = CC(C)C(=C=CC[C@@H](O)c1ccccc1OCCO)CCO ; retrieve measured z-score.
0.991
